system: JHOM2B Cell Line; assay: SRB cytotoxicity assay, JHOM2B; type: cell-based, human; conditions: 2 hour drug exposure, read-out: IC50, Test 1 (2 replicate plates)
measurementLabel: pIC50
Answers are plain numbers, as −log10 of the molar value.

CCc1c2c(nc3ccc(O)cc13)-c1cc3c(c(=O)n1C2)COC(=O)[C@]3(O)CC on JHOM2B Cell Line gives pIC50 = 6.21

###

Tested on: COV644 Cell Line
Assay: SRB cytotoxicity assay, COV644
Assay type: cell-based, human
Conditions: 2, 5, and 6 hour drug exposures, did not reach 50% of Control, read-out: IC50, Test 2 (2 to 3 replicate plates)
Protocol: In vitro studies were conducted in human mucinous ovarian cancer cell lines including JHOM2B, OMC3, and COV644. In one series of experiments, the dose response curves for BNP1350 (also known as Karenitecin), SN-38 (Irinotecan), and Topotecan were obtained and IC50 values were determined. In a second series of experiments, the effect of BNP7787 (2,2′-dithio-bis-ethane sulfonate; Tavocept) on BNP1350-induced cytotoxicity at selected BNP1350 concentrations was examined. […]
measurementLabel: IC50

// IC50 value for CCc1c2c(nc3ccc(O)cc13)-c1cc3c(c(=O)n1C2)COC(=O)[C@]3(O)CC : > 2 µM

###

test system: OMC3 Cell Line; test: SRB cytotoxicity assay, OMC3; type: cell-based, human; details: Homo sapiens, 2 hour drug exposure, read-out: IC50, Test 1 (2 replicate plates)
measurementLabel: pIC50
Answers are plain numbers, as −log10 of the molar value.

[
  {
    "smilesRepr": "CC[C@@]1(O)C(=O)OCc2c1cc1n(c2=O)Cc2c-1nc1ccccc1c2CC[Si](C)(C)C",
    "measurementLabel": "pIC50",
    "observedValue": 7.24
  }
]

Memo: CC[C@@]1(O)C(=O)OCc2c1cc1n(c2=O)Cc2cc3c(CN(C)C)c(O)ccc3nc2-1 , reported pIC50: 5.51

###

assay: Preclinical toxicology, oral single daily doses for five consecutive days, beagle dogs; settings: beagle, dog, in vivo, po
measurementLabel: MTD at 5 days

Reported MTD at 5 days ( CC[C@@]1(O)C(=O)OCc2c1cc1n(c2=O)Cc2c-1nc1ccccc1c2CC[Si](C)(C)C ) = 0.075 mg/kg

Origin of the recorded values: patent US20160038519A1
